Kindly supply the reported Aminopeptidase activity values for the records listed here.
# Tested on: S. salivarius
# method notes: Aminopeptidase activity on β-naphthylamide substrates
# Type: biochemical
# assay conditions: strain ATCC 9759; β-naphthylamine liberated after 60 minutes, 37° C.
Peptide text beside a SMILES is read from it. * marks the point of attachment. βNA = c1ccc2cc(N*)ccc2c1
Answers are plain numbers, in nmol.

C[C@H](N)C(=O)N[C@@H](C)C(=O)N[C@@H](Cc1ccccc1)C(=O)Nc1ccc2ccccc2c1 [Ala-Ala-Phe] (H-Ala-Ala-Phe-βNA)
0
CSCCC(N)C(=O)Nc1ccc2ccccc2c1 (racemic)
5
Cl.N=C(N)NCCC[C@H](NC(=O)CNC(=O)CNC(=O)OCc1ccccc1)C(=O)Nc1ccc2ccccc2c1
0
CC(C)C[C@H](N)C(=O)NCC(=O)O [Leu-Gly, Leucyl-glycine] (H-Leu-Gly-OH)
0
CC(C)C[C@H](NC(=O)[C@@H]1CCCN1C(=O)CN)C(=O)Nc1ccc2ccccc2c1 [Gly-Pro-Leu] (H-Gly-Pro-Leu-βNA)
2
NC(=O)[C@@H](N)CCC(=O)O
0

Field: Aminopeptidase activity. Fill in for each record below.
1. N=C(N)NCCC[C@H](NC(=O)[C@@H](N)CCCNC(=N)N)C(=O)O [Arg-Arg, Arginyl-arginine] (H-Arg-Arg-OH)
2. N=C(N)NCCC[C@H](NC(=O)CN)C(=O)O [Gly-Arg, Glycyl-arginine] (H-Gly-Arg-OH)

24
0

---

# System: B. asaccharolyticus
# Type: biochemical
# assay conditions: strain NY446; β-naphthylamine liberated after 60 minutes, 37° C.
Peptide text beside a SMILES is read from it. * marks the point of attachment. βNA = c1ccc2cc(N*)ccc2c1
For each record, write down the corresponding Aminopeptidase activity.
Numbers only, in nmol.

A selection of reference data follows.
CSCCC(N)C(=O)Nc1ccc2ccccc2c1 (racemic)
0
Cl.N=C(N)NCCC[C@H](NC(=O)CNC(=O)CNC(=O)OCc1ccccc1)C(=O)Nc1ccc2ccccc2c1
2
C[C@H](N)C(=O)N[C@@H](C)C(=O)N[C@@H](Cc1ccccc1)C(=O)Nc1ccc2ccccc2c1 [Ala-Ala-Phe] (H-Ala-Ala-Phe-βNA)
0
CC(C)C[C@H](N)C(=O)NCC(=O)O [Leu-Gly, Leucyl-glycine] (H-Leu-Gly-OH)
0
CC(C)C[C@H](NC(=O)[C@@H]1CCCN1C(=O)CN)C(=O)Nc1ccc2ccccc2c1 [Gly-Pro-Leu] (H-Gly-Pro-Leu-βNA)
0

# get_value(readout='Aminopeptidase activity', item= NC(=O)[C@@H](N)CCC(=O)O )
0

---

# System: Lactobacillus casei
# method notes: Aminopeptidase activity on β-naphthylamide substrates
# Type: biochemical
# assay conditions: strain ATCC 7469; β-naphthylamine liberated after 60 minutes, 37° C.
Peptide text beside a SMILES is read from it. * marks the point of attachment. βNA = c1ccc2cc(N*)ccc2c1
Would you mind telling me the reported Aminopeptidase activity of each entry?
Give bare numbers, in nmol.

N=C(N)NCCC[C@H](NC(=O)CN)C(=O)O [Gly-Arg, Glycyl-arginine] (H-Gly-Arg-OH)
0
CSCCC(N)C(=O)Nc1ccc2ccccc2c1 (racemic)
1
CC(C)C[C@H](NC(=O)[C@@H]1CCCN1C(=O)CN)C(=O)Nc1ccc2ccccc2c1 [Gly-Pro-Leu] (H-Gly-Pro-Leu-βNA)
0
NC(=O)[C@@H](N)CCC(=O)O [α-Glu, α -glutamine]
0
N=C(N)NCCC[C@H](NC(=O)[C@@H](N)CCCNC(=N)N)C(=O)O [Arg-Arg, Arginyl-arginine] (H-Arg-Arg-OH)
1

For every item in the list below, what is its measured Aminopeptidase activity?
1. Cl.N=C(N)NCCC[C@H](NC(=O)CNC(=O)CNC(=O)OCc1ccccc1)C(=O)Nc1ccc2ccccc2c1 [N-CBz-Gly-Gly-Arg]
2. CC(C)C[C@H](N)C(=O)NCC(=O)O [Leu-Gly, Leucyl-glycine] (H-Leu-Gly-OH)

1. 0
2. 0

What does the data say about its Aminopeptidase activity? Entry: C[C@H](N)C(=O)N[C@@H](C)C(=O)N[C@@H](Cc1ccccc1)C(=O)Nc1ccc2ccccc2c1 [Ala-Ala-Phe] (H-Ala-Ala-Phe-βNA)
0

Each recorded value in this set is attributed to patent US4994376A.
